- targetDesc: PDGF-BB (platelet-derived growth factor BB) (Homo sapiens)
- methodSummary: filter
- testParameters: Bn-dU; Tyr-dU1; Ib-dU8; Pe-dU17; Th-dU18; Heg5; 2'-OMe A3, A11, A21, G24
quantity: Kd

Problem: Fill in: Kd of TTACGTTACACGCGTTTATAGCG [4149-8_277] is ___
Result: > 10 nM

----------
- Tested on: VEGF-165 (Homo sapiens), P15692-4
- Sequence: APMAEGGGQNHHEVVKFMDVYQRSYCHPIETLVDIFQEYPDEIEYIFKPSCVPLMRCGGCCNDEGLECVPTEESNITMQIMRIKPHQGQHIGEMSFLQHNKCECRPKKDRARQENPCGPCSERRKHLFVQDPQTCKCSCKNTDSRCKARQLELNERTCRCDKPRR
- methodSummary: filter
- testParameters: Bn-dU, MBn-dU, Nap-dU, 2'-OMe, C3; 5 Heg between parts
quantity: pKd
Note on units: pKd is unitless, being -log10 of a concentration expressed in mol/L.

Problem: May I ask what pKd has been recorded for TTACGTTACCGCGTTTATAGCGCCGTTCAAGTGCTTGTAGGATTTAAATGG [4149-8_416] ?
Result: 10.52

----------
- System: VEGF-121 (Homo sapiens), P15692-9
- Sequence: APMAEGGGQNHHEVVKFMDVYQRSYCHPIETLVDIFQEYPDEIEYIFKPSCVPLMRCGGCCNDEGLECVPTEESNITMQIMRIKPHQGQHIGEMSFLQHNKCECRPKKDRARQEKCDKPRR
- methodSummary: filter
- testParameters: Nap-dU, Bn-dU, MBn-dU, 2'-OMe, C3; 6 Heg between parts
quantity: pKd
Field pKd (float): negative decimal logarithm of the concentration in molar.

Problem: Could you share which pKd value was measured for CCGTTCAAGTGCTTGTAGGATTTAAATGGTTACGTTACCGCGTTTATAGCG [4149-8_413] ?
Result: 10.40

----------
- System: VEGF-121 (Homo sapiens), P15692-9
- Sequence: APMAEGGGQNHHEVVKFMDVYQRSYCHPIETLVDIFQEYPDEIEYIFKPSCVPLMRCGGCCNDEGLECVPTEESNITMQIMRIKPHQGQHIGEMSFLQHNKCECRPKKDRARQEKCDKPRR
- methodSummary: filter
- testParameters: P=Nap-dU; C3 spacer at 7
quantity: Kd

Problem: # Kd lookup, item CCCTCCTCAGCCGTTCAAGTGCTTGTAGGATTTAAATGGAATTGGAGGA [4867-15_30]
Result: 0.11 nM

----------
- Test system: VEGF-121 (Homo sapiens), P15692-9
- Sequence: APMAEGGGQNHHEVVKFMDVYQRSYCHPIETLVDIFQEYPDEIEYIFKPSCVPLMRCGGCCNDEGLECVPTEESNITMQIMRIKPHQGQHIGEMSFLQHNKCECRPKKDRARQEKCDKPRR
- methodSummary: filter
- testParameters: P=Nap-dU; 2'-OMe A9
quantity: Kd (nM)
Numeric only. Scale: nM

Problem: Item under review: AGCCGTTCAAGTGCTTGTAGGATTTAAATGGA [4867-31_73] . Reported Kd?
Result: 5.99

----------
- Test system: VEGF-121 (Homo sapiens), P15692-9
- Sequence: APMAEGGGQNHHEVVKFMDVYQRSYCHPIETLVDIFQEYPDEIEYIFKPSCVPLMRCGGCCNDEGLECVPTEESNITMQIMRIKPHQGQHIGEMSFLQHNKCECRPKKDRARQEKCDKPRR
- methodSummary: filter
- testParameters: P=Nap-dU; C3 spacer at 40
quantity: pKd
To interpret pKd, take it as minus log10 of a concentration measured in moles per litre.

Problem: Field request: pKd | item: CCCTCCATCAGCCGTTCAAGTGCTTGTAGGATTTAAATGAATTGGAGGA [4867-15_63]
Result: 7.82

----------
- Tested on: VEGF-121 (Homo sapiens), P15692-9
- Sequence: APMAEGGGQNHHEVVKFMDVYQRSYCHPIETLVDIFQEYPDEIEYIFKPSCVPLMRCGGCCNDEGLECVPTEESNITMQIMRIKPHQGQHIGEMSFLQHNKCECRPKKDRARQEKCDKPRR
- methodSummary: filter
- testParameters: P=Nap-dU; 2'-OMe A22
quantity: Kd (nM)
Expressed in nM, but write only the number.

Problem: Consider the sequence shown here: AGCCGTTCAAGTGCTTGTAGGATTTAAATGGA [4867-31_86] What is its recorded Kd?
Result: 6.21

----------
- Tested on: VEGF-121 (Homo sapiens), P15692-9
- Sequence: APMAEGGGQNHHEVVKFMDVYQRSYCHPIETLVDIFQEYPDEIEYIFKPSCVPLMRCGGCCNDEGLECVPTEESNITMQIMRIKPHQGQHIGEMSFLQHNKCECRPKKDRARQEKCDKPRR
- methodSummary: filter
- testParameters: all P are NapdU, rest DNA; SB18T, 37 C
quantity: Kd (nM)
Give the number; nM is assumed, so skip it.

Problem: What value of measured Kd is listed for CAGCCGTTCAAGTGCTTGTAGGATTTAAATGGA [4867-31_42] ?
Result: 0.2

----------
- targetDesc: PDGF-BB (platelet-derived growth factor BB) (Homo sapiens) (UniProt P01127)
- Sequence (P01127 82-190): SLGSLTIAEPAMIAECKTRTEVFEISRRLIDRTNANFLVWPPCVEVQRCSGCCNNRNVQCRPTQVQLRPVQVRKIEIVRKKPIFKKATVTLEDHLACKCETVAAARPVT
- methodSummary: filter
- testParameters: VEGF-1Heg-PDGF; NapdU, 2'-OMe
quantity: pKd
Please keep in mind that pKd is minus log10 of the molar concentration; only the number is needed.

Problem: Any idea what pKd was measured for CCGTTCAAGTGCTTGTAGGATTTAAATGGCGACAGCATGTATGCACATCT [5169-4_98] ?
Result: 11.28

----------
- Tested on: VEGF-121 (Homo sapiens), P15692-9
- Sequence: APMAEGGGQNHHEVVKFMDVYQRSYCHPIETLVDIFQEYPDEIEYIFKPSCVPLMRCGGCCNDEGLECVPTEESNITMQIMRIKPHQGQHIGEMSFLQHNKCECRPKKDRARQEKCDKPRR
- methodSummary: filter
- testParameters: P=Nap-dU; C3 spacer at 27
quantity: Kd (nM)
Response body: numeric value in nM, unit text excluded.

Problem: API: value(readout= Kd, system= VEGF-121 (Homo sapiens), P15692-9, query= CCCTCCATCAGCCGTTCAAGTGCTTGAGGATTTAAATGGAATTGGAGGA [4867-15_50] )
Result: 3.5

----------
- targetDesc: PDGF-BB (platelet-derived growth factor BB) (Homo sapiens)
- methodSummary: filter
- testParameters: NapdU at P; 2'-OMe 1,6,14
quantity: pKd
When answering, recall that pKd equals minus log10 of the concentration in mol/L, and write that number alone.

Problem: Entry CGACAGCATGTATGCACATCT [5169-4_108] : reported pKd = ?
Result: 10.92

----------
- targetDesc: PDGF-BB (platelet-derived growth factor BB) (Homo sapiens)
- methodSummary: filter
- testParameters: as 5169-4_146; PS 2; 3' inverted dT
quantity: Kd (nM)
API: value field is a number in nM; no unit string.

Problem: Which Kd reading was recorded for the sequence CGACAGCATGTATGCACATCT [5169-4_150] ?
Result: 0.013

----------
- targetDesc: PDGF-BB (platelet-derived growth factor BB) (Homo sapiens)
- methodSummary: filter
- testParameters: NapdU at P; C3 spacer at 20
quantity: Kd (nM)
Entry rule: numbers only, all in nM.

Problem: Consider the sequence shown here: CGACAGCATGTATGCACATT [5169-4_78] What is its recorded Kd?
Result: 0.28

----------
- System: rVEGF164, P16612-2
- Sequence: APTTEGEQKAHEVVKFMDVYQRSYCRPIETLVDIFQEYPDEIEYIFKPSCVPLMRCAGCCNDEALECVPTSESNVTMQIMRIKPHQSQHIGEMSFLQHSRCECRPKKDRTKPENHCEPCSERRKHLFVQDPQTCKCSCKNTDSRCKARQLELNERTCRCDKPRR
- methodSummary: filter
- testParameters: all P are NapdU, rest DNA; SB18T, 37 C
quantity: Kd
// unit must come after the numeric part

CAGCCGTTCAAGTGCTTGTAGGATTTAAA [4867-31_47] : 83 nM
CAGCCGTTCAAGTGCTTGTAGGATTTAAATGGA [4867-31_42] : 0.05 nM

Attention now shifts to the item below.
Problem: Entry CAGCCGTTCAAGTGCTTGTAGGATTTAAAT [4867-31_46] : reported Kd = ?
Result: 9.6 nM

----------
- targetDesc: PDGF-BB (platelet-derived growth factor BB) (Homo sapiens) (UniProt P01127)
- methodSummary: filter
- testParameters: BndU; PS 9,15; 2'-OMe; Heg 5; C3 11
quantity: Kd (nM)
Response body: numeric value in nM, unit text excluded.

Problem: Given the sequence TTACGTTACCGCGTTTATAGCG [4149-8_391] , what is its reported Kd?
Result: 0.012
